Reference source for all entries: the supplement of paper PMC12764529

# PROCEDURE_TEXT: folding stability dG unfold from chymotrypsin proteolysis; higher = more stable
Listed below: folding stability dG unfold values for each entry.

>  <RESIDUE_STRING>
SAGGSMRFKIEDINIGIIPHPPGWLLIPITVKVKFEEPDPDNGEPKTVEHEFPIMIMMPKDDLDDLSAGGSA [r2_184_TrROS]

>  <folding stability dG unfold [kcal/mol]>
2.68

$$$$
>  <RESIDUE_STRING>
SAGGSKIIITYDKEKNVITIKVEKNGKLLEITIEVKSKEDLEEALKKAEELAKELEKKGYKVEIIPSAGGSA [r2_118_TrROS_Hall]

>  <folding stability dG unfold [kcal/mol]>
2.31

$$$$
>  <RESIDUE_STRING>
SAGGSASTREVGDKTLTVTPIKLPNGTNLVLLRTFDPATGKVPVLAFPPEEGNPLGESVLPASELLSAGGSA [r15_671_JUSTAS]

>  <folding stability dG unfold [kcal/mol]>
-0.654

$$$$
>  <RESIDUE_STRING>
SAGEVELEVPIEALKKLPNLEGATVRVTVKLNENGELEITIEVEKAPEPPLTEEEKKKLLEEEEKKKKSAGG [r19_313_TrROS_Hall]

>  <folding stability dG unfold [kcal/mol]>
1.31

$$$$
>  <RESIDUE_STRING>
SAGGSIPAEEIADKLRKEPGIPEDDVEVNVERRPGQVTIDVKMDDPDHPQHRRMKKRAQDALQKLLSAGGSA [r2_3_TrROS]

>  <folding stability dG unfold [kcal/mol]>
0.186

$$$$
>  <RESIDUE_STRING>
SADVVVIHARSPEELRAALEEARKEGKTVRIVVSREELDELKALLPEDVKIEVLKNENGEELVVIEVKVSAG [r14_127_TrROS_Hall]

>  <folding stability dG unfold [kcal/mol]>
3.11

$$$$
>  <RESIDUE_STRING>
SAGGSASLESEDVEEVSTSTSVVPLPDGGTATVTTTTYRHKEPGTLVTRTTTTFPGGATTTTVTLLSAGGSA [r15_188_JUSTAS]

>  <folding stability dG unfold [kcal/mol]>
2.04

$$$$
